- TARGET SYSTEM: PI3K-alpha (Homo sapiens)
- Sequence (P42336 whole entry, species assumed): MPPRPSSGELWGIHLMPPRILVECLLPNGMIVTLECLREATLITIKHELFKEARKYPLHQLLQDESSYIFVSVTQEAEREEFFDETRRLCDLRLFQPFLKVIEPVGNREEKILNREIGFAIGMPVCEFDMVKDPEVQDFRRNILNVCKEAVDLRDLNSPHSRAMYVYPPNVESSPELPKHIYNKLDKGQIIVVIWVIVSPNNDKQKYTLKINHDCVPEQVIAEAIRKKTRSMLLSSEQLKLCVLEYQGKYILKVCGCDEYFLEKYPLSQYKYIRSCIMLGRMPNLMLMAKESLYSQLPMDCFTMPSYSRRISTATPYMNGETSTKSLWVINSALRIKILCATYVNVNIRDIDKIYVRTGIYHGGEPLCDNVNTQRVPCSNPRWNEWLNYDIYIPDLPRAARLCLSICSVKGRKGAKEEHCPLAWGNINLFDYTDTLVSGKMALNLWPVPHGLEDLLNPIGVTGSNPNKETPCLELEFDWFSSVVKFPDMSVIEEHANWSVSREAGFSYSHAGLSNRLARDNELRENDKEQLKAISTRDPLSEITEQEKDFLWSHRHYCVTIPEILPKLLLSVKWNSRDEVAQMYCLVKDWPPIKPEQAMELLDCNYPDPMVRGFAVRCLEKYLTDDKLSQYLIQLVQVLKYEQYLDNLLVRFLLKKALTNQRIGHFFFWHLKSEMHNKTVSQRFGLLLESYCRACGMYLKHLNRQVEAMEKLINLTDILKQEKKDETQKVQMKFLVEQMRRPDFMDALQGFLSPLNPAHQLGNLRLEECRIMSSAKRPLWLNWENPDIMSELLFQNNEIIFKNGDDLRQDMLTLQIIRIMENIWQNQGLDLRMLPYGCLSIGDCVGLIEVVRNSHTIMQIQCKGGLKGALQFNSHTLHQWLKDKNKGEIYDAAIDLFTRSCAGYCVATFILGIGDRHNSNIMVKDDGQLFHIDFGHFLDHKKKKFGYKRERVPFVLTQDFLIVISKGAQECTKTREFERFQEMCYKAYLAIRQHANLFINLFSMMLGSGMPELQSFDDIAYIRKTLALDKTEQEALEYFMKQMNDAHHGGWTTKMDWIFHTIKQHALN
- Sequence (P27986 whole entry partner, species assumed): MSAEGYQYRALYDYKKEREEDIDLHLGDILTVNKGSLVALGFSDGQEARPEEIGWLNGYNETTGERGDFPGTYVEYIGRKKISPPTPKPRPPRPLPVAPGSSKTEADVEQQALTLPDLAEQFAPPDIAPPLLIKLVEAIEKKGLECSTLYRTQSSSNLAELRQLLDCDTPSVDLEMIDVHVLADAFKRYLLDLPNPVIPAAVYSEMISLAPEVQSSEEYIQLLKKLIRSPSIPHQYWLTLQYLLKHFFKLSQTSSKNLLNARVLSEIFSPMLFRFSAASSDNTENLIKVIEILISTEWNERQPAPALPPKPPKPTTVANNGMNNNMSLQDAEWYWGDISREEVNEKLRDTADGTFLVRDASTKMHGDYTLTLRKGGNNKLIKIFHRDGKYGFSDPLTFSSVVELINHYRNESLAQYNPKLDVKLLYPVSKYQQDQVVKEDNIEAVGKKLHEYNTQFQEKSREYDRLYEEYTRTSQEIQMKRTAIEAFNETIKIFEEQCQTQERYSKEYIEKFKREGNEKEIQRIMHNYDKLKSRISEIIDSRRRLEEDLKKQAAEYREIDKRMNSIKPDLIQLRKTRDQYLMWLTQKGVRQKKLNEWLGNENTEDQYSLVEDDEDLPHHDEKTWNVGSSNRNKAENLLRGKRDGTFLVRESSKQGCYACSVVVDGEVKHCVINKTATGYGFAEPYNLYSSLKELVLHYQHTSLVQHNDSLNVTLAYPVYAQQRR
- EXPERIMENTAL PROTOCOL: PI3K-alpha fluorescence polarization assay
- Assay type: biochemical
- STATED CONDITIONS: read-out: PI3Kα Avg. IC50
ATTRIBUTE MEASURED: IC50 (nM)

Kindly note: PI3K-alpha (Homo sapiens), `COc1ccc2[nH]cc(/C=C3\Oc4cc(O)cc(CO)c4C3=O)c2c1` , IC50 value reported: 82.5

1 = COc1ccc(-c2cccc3c2c(/C=C2\Oc4cc(O)cc(O)c4C2=O)cn3C)cc1
2 = CNC(=O)Nc1ccc2c(c1)C(=O)/C(=C/c1c[nH]c3c(/C=C/CN(C)C)cc(OC)cc13)O2
3 = COc1ccc2c(c1)c(C=C1Oc3cccc(O)c3C1=O)c(C)n2CCCCCl
Data request: Arrange by IC50, high to low. Put the labels in the requested order and write them down.
Data returned: 1, 3, 2
